Measured IC50 by item
molecular target: HLA B*0801 (Homo sapiens, UniProt P01889, A93T/A95T/D138N/E176V/E187T/K202T/Q94N/R180D/S35A/V36M/Y33D/Y91F); test: biochemical
Where a SMILES comes first, the peptide text is derived from it.
The figure you give is taken to be in nM; do not add the unit.

Need IC50, item CC[C@H](C)[C@H](NC(=O)[C@H](CCCNC(=N)N)NC(=O)[C@H](CO)NC(=O)[C@H](CCCNC(=N)N)NC(=O)[C@H](CC(C)C)NC(=O)[C@H](C)N)C(=O)N[C@@H](CCCNC(=N)N)C(=O)N[C@@H](CCC(=O)O)C(=O)N[C@@H](CC(C)C)C(=O)O [3102.0743] (H-ALRSRIREL-OH)
0.46

Repeat for the following molecule: CC(C)[C@H](NC(=O)[C@H](Cc1ccccc1)NC(=O)[C@H](CS)NC(=O)[C@@H](NC(=O)[C@H](CCCCN)NC(=O)[C@H](CCCCN)NC(=O)[C@H](CCCCN)NC(=O)[C@H](CO)NC(=O)[C@@H](N)Cc1ccccc1)C(C)C)C(=O)O [3102.0556] (H-FSKKKVCFV-OH)
6

Now give it for CSCC[C@H](NC(=O)[C@H](C)NC(=O)[C@@H](N)CCSC)C(=O)N[C@@H](Cc1ccccc1)C(=O)N[C@@H](Cc1ccc(O)cc1)C(=O)N[C@@H](C)C(=O)N[C@@H](Cc1c[nH]cn1)C(=O)N[C@@H](C)C(=O)N[C@@H](CC(C)C)C(=O)O [3102.0776] (H-MAMFYAHAL-OH) too.
1.2

Also CC(C)[C@H](NC(=O)[C@H](CC(N)=O)NC(=O)[C@H](C)NC(=O)[C@H](Cc1ccccc1)NC(=O)[C@H](CCCCN)NC(=O)[C@H](CCCCN)NC(=O)[C@H](Cc1c[nH]cn1)NC(=O)[C@H](CCCNC(=N)N)NC(=O)[C@@H](N)CC(N)=O)C(=O)O [3102.0572] (H-NRHKKFANV-OH) ?
36
